Target: T1, CD71 apical domain (UniProt P02786 189-383, limits assumed)
T1 construct: domain: Apical domain
T1 sequence (P02786 189-383 limits assumed): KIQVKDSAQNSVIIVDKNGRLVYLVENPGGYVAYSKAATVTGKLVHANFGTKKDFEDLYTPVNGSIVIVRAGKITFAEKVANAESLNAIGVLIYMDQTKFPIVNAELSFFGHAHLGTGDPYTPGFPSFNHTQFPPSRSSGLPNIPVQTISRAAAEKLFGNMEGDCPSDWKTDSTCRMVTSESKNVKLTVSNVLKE
Test: solution ELISA, signal ratio to HSA
Assay metric: apical domain:HSA

Reference set, count: 5
Binder: SEQ ID NO 153 (designed binder, FN3 domain) MLPAPKNLVVSRVTEDSARLSWTAPDAAFDSFYIAYAEPRPDGEAIALHVPGSERSYDLTGLKPGTEYSVLIHGVKGGLLSSPLSAIFTT
Recorded measurement: 186
--
Binder: SEQ ID NO 144 (designed binder, FN3 domain) MLPAPKNLVVSRVTEDSARLSWTAPDAAFDSFYIAYAEPRPDGEAIGLYVPGSERSYDLTGLKPGTEYSVLIHGVKGGLLSSPLGAFFTT
Recorded measurement: 234
--
Binder: SEQ ID NO 132 (designed binder, FN3 domain) MLPAPKNLVVSRVTEDSARLSWTAPDAAFDSFFIPYAEPSPTGEAIVLTVPGSERSYDLTGLKPGTEYSVLIHGVKGGLLSSPLSAHFTT
Recorded measurement: 180
--
Binder: SEQ ID NO 121 (designed binder, FN3 domain) MLPAPKNLVVSRVTEDSARLSWTAPDAAFDSFFIGYLEPQPPGEAIALWVPGSERSYDLTGLKPGTEYNVTIQGVKGGFPSMPLSAIFTT
Recorded measurement: 348
--
Binder: SEQ ID NO 192 (designed binder, FN3 domain) MLPAPKNLVVSRVTEDSARLSWTAPDAAFDSFDIGYTEYGGYGEAIYLSVPGSERSYDLTGLKPGTEYWVLIQGVKGGGSSVPLSAIFTT
Recorded measurement: 342

(a) SEQ ID NO 139 (designed binder, FN3 domain) MLPAPKNLVVSRVTEDSARLSWTAPDAAFDSFFIGYLEPQPPGEAIQLGVPGSERSYDLTGLKPGTEYNVTIQGVKGGFPSHPLNANFTT
(b) SEQ ID NO 179 (designed binder, FN3 domain) MLPAPKNLVVSRVTEDSARLSWTAPDAAFDSFPIAYAEPRPDGEAIVLTVPGSERSYDLTGLKPGTEYSVLIHGVKGGLLSSPLSAFFTT
**Query** a or b : whose apical domain:HSA is greater? I would appreciate it if you answered with the label of your choice.
**Result** b
